Molecular target: MCL-1 (Homo sapiens), Q07820
Sequence (Q07820 whole entry): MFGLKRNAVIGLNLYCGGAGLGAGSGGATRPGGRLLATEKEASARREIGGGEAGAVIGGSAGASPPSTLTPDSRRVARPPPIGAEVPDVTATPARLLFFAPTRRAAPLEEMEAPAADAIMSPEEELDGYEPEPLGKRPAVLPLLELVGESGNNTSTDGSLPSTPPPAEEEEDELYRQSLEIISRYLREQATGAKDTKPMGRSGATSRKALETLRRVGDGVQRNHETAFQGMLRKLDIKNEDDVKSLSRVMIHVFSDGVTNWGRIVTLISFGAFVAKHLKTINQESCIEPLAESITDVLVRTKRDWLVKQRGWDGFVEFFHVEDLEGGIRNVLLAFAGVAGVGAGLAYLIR
Assay: fluorescence anisotropy competition
Settings: modification not given
pIC50: −log10 of the molar value.
property-label: pIC50

CAQWRRIGDKVNLRQKLLN [NOXA75–93 L78W 75-93, Q9JM54]: 5.66
CAQFRRIGDKVNLRQKLLN [NOXA75–93 L78F 75-93, Q9JM54]: 5.57
